Assay: Acute toxicity test, Test Example 5
Assay type: in vivo
Conditions: mouse, in vivo, iv; ICR male mice, tail vein; 14 days
Protocol: 75 mg of each test compound was dissolved in 0.4 ml of phuysiological saline. The solution was administered to the tail vein of ICR strain male mice (mean body weight of 25 g, 5 weeks old) of one group being 3 mice. Observation was made for 14 days.
Structures can show the parent of a compound that is named as a salt.
Entries and their LD50 at 336 h

Ask: Can you look up the measured LD50 at 336 h of CON=C(C(=O)NC1C(=O)N2C(C(=O)[O-])=C(C[n+]3cccc4c3CCC4)CSC12)c1csc(N)n1 (stereo not drawn) for me?
Reply: ≥ 4000 mg/kg

Ask: Can you look up the measured LD50 at 336 h of CC[n+]1ccc(SCC2=C(C(=O)[O-])N3C(=O)[C@@H](NC(=O)/C(=N\O[C@@H](C)C(=O)O)c4csc(N)n4)[C@H]3SC2)cc1 [Compound I, monosodium salt] for me?
Reply: ≥ 4000 mg/kg

Ask: Can you look up the measured LD50 at 336 h of CC(C)(ON=C(C(=O)NC1C(=O)N2C(C(=O)[O-])=C(C[n+]3ccccc3)CSC12)c1csc(N)n1)C(=O)O (stereo not drawn) for me?
Reply: ≥ 4000 mg/kg
